systemUnderTest: hCCR4 (Homo sapiens, UniProt P51679)
Sequence (P51679 whole entry): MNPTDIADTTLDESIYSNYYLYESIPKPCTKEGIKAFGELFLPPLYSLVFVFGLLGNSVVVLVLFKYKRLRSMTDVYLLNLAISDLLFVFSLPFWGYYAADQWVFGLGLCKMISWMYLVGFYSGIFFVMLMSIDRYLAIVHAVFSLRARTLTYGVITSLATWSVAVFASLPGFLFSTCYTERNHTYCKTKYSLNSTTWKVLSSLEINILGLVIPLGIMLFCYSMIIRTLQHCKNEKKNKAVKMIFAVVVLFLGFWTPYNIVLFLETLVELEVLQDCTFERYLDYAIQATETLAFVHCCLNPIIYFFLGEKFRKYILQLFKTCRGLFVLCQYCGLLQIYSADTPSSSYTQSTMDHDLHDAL
protocolNotes: Calcium flux assay
conditionSummary: Chem5-hCCR4 cells, CCL22 at EC80 of 1.5 nM, FLIPR Calcium 6 dye; read-out: Potency (IC50)
Catalogue of IC50 values
experimentalEndpoint: IC50

Cc1nn([C@H](C)c2ccc(Cl)cc2Cl)c2nc(N3CC(C4CCCN(CCNS(=O)(=O)C(C)C)C4)C3)cnc12 (mixture of isomers) [Example 65]; < 100 nM
Cc1nn([C@H](C)c2ccc(Cl)cc2Cl)c2nc(N3CC([C@@H]4CCCN(CCCO)C4)C3)cnc12 (single isomer, unassigned) [Example 15]; 100 to 500 nM
C[C@H](c1ccc(Cl)cc1Cl)n1nc(C#N)c2ncc(N3CC([C@@H]4CCCN(CCCC(N)=O)C4)C3)nc21 (single isomer, unassigned) [Example 79]; 100 to 500 nM
C[C@H](c1ccc(Cl)cc1Cl)n1nc(C(F)(F)F)c2ncc(N3CC([C@@H]4CCCN(CCCS(C)(=O)=O)C4)C3)nc21 (single isomer, unassigned) [Example 115]; 100 to 500 nM
Cc1nn([C@H](C)c2ccc(Cl)cc2Cl)c2nc(N3CC([C@H]4CCCN(CCNC(=O)C(C)C)C4)C3)cnc12 (single isomer, unassigned) [Example 90]; < 100 nM
